# ASSAY_PROTOCOL: ATG_NFI_CIS: Attagene CIS-FACTORIAL HepG2 Assay for human Nuclear Factor I (NFI) (AID 2282989)
# TEST_CONDITIONS: HepG2 cis-regulatory reporter, NFI response element transcription; actives raise or lower the signal
Activity calls are given as the source filed them. The calls were made as follows: active = hit-call score of the fitted dose curve at least 0.9, where 1 is the maximum; inactive = score below 0.9.
READOUT: outcome

MOLECULE | READOUT | RESULT
CC1=NN(c2ccccc2)C(=O)C1 | outcome | inactive
CC(O)COc1ccccc1 (configuration not stated) | outcome | inactive
Nc1ccn([C@@H]2O[C@H](CO)[C@@H](O)C2O)c(=O)n1 (some centres not stated) | outcome | inactive
NS(=O)(=O)O | outcome | inactive
Brc1ccc(Oc2ccc(Br)cc2Br)cc1 | outcome | inactive
O=CC(F)(F)C(F)(F)C(F)(F)F | outcome | inactive

Per the records, this molecule ( CC(C)(c1ccc(Oc2ccc(N)cc2)cc1)c1ccc(Oc2ccc(N)cc2)cc1 ) has outcome equal to inactive

* * *

# TARGET_UNDER_TEST: Cellular tumor antigen p53 (Homo sapiens) (UniProt P04637)
# Sequence (P04637 whole entry, looked up): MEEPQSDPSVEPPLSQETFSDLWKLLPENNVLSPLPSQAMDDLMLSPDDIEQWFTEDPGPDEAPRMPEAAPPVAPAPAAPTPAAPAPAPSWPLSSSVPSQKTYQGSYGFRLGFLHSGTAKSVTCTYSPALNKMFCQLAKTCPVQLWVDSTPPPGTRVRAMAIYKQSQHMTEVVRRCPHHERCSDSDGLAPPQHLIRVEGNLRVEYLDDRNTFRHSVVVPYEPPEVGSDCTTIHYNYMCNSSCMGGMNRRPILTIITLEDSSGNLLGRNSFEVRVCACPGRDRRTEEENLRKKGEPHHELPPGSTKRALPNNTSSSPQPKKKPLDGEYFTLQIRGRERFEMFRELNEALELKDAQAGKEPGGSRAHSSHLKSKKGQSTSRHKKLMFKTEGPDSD
# ASSAY_PROTOCOL: TOX21_p53_BLA_p2_ratio: Tox21 HCT-116 p53 Agonism Beta-lactamase Assay, Ratio, Phase 2 (AID 2283592)
Inconclusive results are not listed. Activity calls are given as the source filed them. Rule for the calls: active = hit-call score of the fitted dose curve at least 0.9, where 1 is the maximum; inconclusive = response in the unintended direction; inactive = score below 0.9.
Please reply with one of these outcomes: YES (active), NO (inactive)

MOLECULE | ASSIGNED_CLASS
CCCCCCCCCCCC(=O)NCCCN(C)C | YES
NNc1nc(-c2ccc([N+](=O)[O-])cc2)cs1 | YES

Enquiry: Would you mind telling me which call this test gave CC1=NN(c2ccccc2)C(=O)C1 ?
Return: NO

Enquiry: Would you mind telling me which call this test gave COc1ccccc1NC(=O)c1cc2ccccc2cc1O ?
Return: YES

Enquiry: Would you mind telling me which call this test gave Oc1c(Cl)ccc(Cl)c1Cl ?
Return: NO

Enquiry: Would you mind telling me which call this test gave C[C@]12CC[C@@H]3c4ccc(O)cc4CC[C@H]3[C@@H]1CC[C@@H]2OC(=O)CCC1CCCC1 ?
Return: NO

Enquiry: Would you mind telling me which call this test gave CC=O ?
Return: YES

Enquiry: Would you mind telling me which call this test gave CNNCc1ccc(C(=O)NC(C)C)cc1 ?
Return: NO

Enquiry: Would you mind telling me which call this test gave Cc1ccccc1C(OCCN(C)C)c1ccccc1 (stereo not drawn) ?
Return: NO

* * *

# Read-out: Macrophage colony-stimulating factor (MCSF), CSF1 (gene 1435)
# ASSAY_PROTOCOL: BSK_CASM3C_MCSF: BioMAP Diversity Plus: CASM3C Assay for Macrophage colony-stimulating factor (MCSF) Biomarker Activity (AID 2283044);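 also: M-CSF protein amount quantified by ELISA after 24 h exposure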
# TEST_CONDITIONS: primary human coronary artery smooth muscle cells; actives raise or lower the signal
Calls of active or inactive are those of the source. Rule for the calls: active = hit-call score of the fitted dose curve at least 0.9, where 1 is the maximum; inactive = score below 0.9.
Please reply with one of these outcomes: true = active, false = inactive

MOL | ASSIGNED_CLASS
Cc1ccc(N=Nc2c(O)ccc3ccccc23)c(C)c1 | false
O=C1c2ccc(O)c(O)c2C(=O)c2c(O)ccc(O)c21 | false
NC(=NCCCCCCN=C(N)/N=C(\N)Nc1ccc(Cl)cc1)/N=C(\N)Nc1ccc(Cl)cc1 | true
O=C(O)CCC(F)(F)C(F)(F)C(F)(F)C(F)(F)C(F)(F)C(F)(F)F | false
C=COC(=O)C(C)(C)CCCCCC | true

Enquiry: Would you mind telling me which call this test gave Oc1cc2ccccc2cc1O ?
Return: false
